Test system: PLK3;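 note: KINOMEscan kinase panel screen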
recorded-conditions: concentration: 1 μM,replicates: in singlicate; n = 1
Measured %Inh values are reported for all entries that follow.
Please answer in the form of a number followed by its unit of measurement.

CCNCC(Cc1ccccc1)NC(=O)c1cc(Br)c(-c2ccnc3[nH]ccc23)s1.Cl.Cl (stereo not drawn)    47%
Cl.c1ccc(Oc2ccc(Nc3ccnc4cc(-c5ccc(CN6CCNCC6)o5)ccc34)cc2)nc1    0%
CC(C(=O)NC1CCN(c2ccnc(Nc3ccc(F)cc3)n2)C1)c1ccc(Cl)cc1 (stereo not drawn)    0%

Reported %Inh for `CC(C)S(=O)(=O)N1CCN(Cc2ccc3c(c2)nc(NC(=O)c2ccsc2)n3C[C@H](O)c2ccccc2)CC1` was 0%

For this compound ( `Cl.Cl.NC[C@H](CC1CCCCC1)NC(=O)c1ccc(-c2ccnc3[nH]ccc23)s1` ), measured %Inh is 0%

%Inh reported for this compound `Cc1cccc(-c2nc(Nc3ccncc3)c3sccc3n2)n1` : 13%

Short answer for COc1cc(Nc2nccc(N3CCC(NC(=O)c4cccc(C#N)c4)C3)n2)cc(OC)c1OC (stereo not drawn) : %Inh was 0%

// field: %Inh; key: `COc1cc2ncn(-c3cc(OCC4CCCCC4)c(C(N)=O)s3)c2cc1OC` ; value = 99.3%

Recorded result, `COc1cccc(OC)c1C(=O)Nc1cccc(-c2nn3ccccc3c2-c2ccnc(Nc3cccc(F)c3)n2)c1` , %Inh: 0%

According to the records, this compound `CS(=O)(=O)Nc1ccc(-c2ccnc3[nH]ccc23)cc1` displays %Inh of 0%

Per the record, `Cc1ccc2c(-c3ccnc(Nc4ccc(C(F)(F)F)cc4)n3)cnn2n1` has %Inh of 33%

The measured %Inh associated with `O=C(NCC1CC1)c1ccc(-c2cc(C(=O)NC3CC3)ccc2F)cc1` reads 0%

So, `CC(=O)Nc1ccc(-c2cc3ncnc(SCC(=O)O)c3s2)cc1` ? Its %Inh was 7%

The reported %Inh of the compound `Cn1ccc2ncnc(Oc3ccc(NC(=O)Nc4cnn(C(C)(C)C)c4)c(Cl)c3)c21` was 11%

%Inh measured on `O=C(Nc1ccc(Oc2ccc3nc(NC(=O)C4CC4)cn3n2)c(F)c1)c1cccn(-c2ccccc2)c1=O` = 0%
